Reference source for all entries: a collection of fitness landscapes (doi:10.1126/science.1257360)

B1: PhoQ; a variant is named by its letters at X, in order, P23837 (parent)
chain: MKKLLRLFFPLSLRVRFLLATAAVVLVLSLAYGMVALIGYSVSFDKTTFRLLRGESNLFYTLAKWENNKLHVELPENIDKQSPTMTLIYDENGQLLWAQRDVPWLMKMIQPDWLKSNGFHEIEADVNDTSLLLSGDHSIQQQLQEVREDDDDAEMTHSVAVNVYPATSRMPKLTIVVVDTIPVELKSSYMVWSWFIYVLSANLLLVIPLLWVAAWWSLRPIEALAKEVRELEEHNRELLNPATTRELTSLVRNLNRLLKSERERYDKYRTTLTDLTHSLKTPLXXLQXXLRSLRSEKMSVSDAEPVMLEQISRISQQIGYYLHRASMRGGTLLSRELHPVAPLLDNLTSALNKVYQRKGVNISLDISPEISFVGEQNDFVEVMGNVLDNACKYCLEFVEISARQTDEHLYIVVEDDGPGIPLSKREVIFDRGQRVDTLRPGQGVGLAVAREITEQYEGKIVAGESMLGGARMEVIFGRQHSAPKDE

Variants of: B1
Assay: enrichment ratio after two sorts for PhoP signalling (ratio (wild type AVST 3.29)); higher = more functional
Conditions: with PhoP (E. coli)
The full ranking holds about 140,000 sequences; the median of “enrichment ratio after two sorts for PhoP signalling” is about 0, and the highest 2% start at about 11. This excerpt belongs to a sample that is enriched for the highest values.
Tag: Condition met if measured enrichment ratio is not below 10, Condition not met if it is.

See these solved cases before continuing.
mutation notation	class label
VGHR	Condition not met
QVGM	Condition not met
GTMM	Condition not met
AECC	Condition met
QPWL	Condition not met

Enquiry: hey, is enrichment ratio for this one >= 10? TCDS
Return: Condition not met

Enquiry: Could you tell me if the measured enrichment ratio of AECI reaches 10 or more?
Return: Condition not met

Enquiry: Reported enrichment ratio at or above 10? ACSL
Return: Condition met

Enquiry: Is enrichment ratio for VYMM at or above 10?
Return: Condition not met

Enquiry: Could you tell me if the measured enrichment ratio of DEMI reaches 10 or more?
Return: Condition not met
